# MEASURED TARGET: T1, Puf4 RNA-binding domain (Saccharomyces cerevisiae, UniProt P25339 537-888)
# T1 sequence: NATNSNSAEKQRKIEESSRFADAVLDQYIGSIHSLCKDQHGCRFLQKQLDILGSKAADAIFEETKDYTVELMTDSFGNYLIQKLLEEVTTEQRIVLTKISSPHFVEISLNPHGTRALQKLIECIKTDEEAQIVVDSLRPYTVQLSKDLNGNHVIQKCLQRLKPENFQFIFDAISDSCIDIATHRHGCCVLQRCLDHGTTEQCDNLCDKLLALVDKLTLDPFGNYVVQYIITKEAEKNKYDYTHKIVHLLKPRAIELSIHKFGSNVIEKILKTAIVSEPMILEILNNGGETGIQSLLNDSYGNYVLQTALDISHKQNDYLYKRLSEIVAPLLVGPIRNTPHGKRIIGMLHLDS
# ASSAY PROTOCOL: EMSA; 25 C; direct measurement parallel to competition; corrected for 75% active protein; 20 mM HEPES-Na or HEPES-K pH 7.4, 2 mM MgCl2, 100 mM KOAc, 2 mM DTT, 0.2% Tween 20, 5% glycerol, 0.1 mg/ml BSA; 25 or 0 C; native 20% gel at 4-6 C
# SETTINGS: protein: recombinant; tags: C-terminal SNAP tag; N-terminal 6xHis removed by TEV; label: 5'-32P; single strand
VALUE TYPE: pKd
Numbers only, as −log10 of the molar value.

Enquiry: Please report the recorded pKd for AUGUGUAUAUUAGU (ssRNA) [Puf4_HO RNA] .
Return: 9.98
